Target: Histidine--tRNA ligase (Leishmania infantum) (UniProt A4I591)
Sequence (A4I591 as listed by the source): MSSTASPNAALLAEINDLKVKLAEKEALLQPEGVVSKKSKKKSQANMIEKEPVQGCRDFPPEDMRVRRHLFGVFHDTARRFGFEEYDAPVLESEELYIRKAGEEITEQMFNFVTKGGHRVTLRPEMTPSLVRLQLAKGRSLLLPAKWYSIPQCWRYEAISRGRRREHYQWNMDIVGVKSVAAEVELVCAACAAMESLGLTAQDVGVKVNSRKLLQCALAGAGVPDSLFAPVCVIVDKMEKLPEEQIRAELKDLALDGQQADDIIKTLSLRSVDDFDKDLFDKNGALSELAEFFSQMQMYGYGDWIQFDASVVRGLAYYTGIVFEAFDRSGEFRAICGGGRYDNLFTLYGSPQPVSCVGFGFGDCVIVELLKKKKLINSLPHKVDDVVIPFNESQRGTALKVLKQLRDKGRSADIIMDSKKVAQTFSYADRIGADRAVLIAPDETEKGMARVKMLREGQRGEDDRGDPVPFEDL
Assay: Leishmania infantum Histidine tRNA synthetase (LdHisRS)
Assay type: functional
Design: scale not given: in the data most compounds retested in dose-response had high values
Conditions: 30 µM
The campaign covered roughly 69,000 compounds. About 420 (0.61%) showed an effect of 50% or more. This is one part of a sample in which strong results are shown more often than they occur.
Record form. Attribute: Percent Effect. Fill in for each entry.
Enter the number, and then the unit.

Reference set, count: 5
1. CCC(C)CNc1ccc2oc(COC)nc2c1 (configuration not stated); 94.2%
2. COCc1cccc(NCc2cccnc2)c1; 6.67%
3. CCCS(=O)(=O)C(C)C(=O)Nc1ccc2oc(C3CC3)nc2c1 (configuration not stated); 26.8%
4. CCOCCN1CCc2cncnc2C1; 32.3%
5. CN(CCCOc1ccccc1)C(=O)CN1CCc2cncnc2C1; 65.2%

Batch: Percent Effect for all items listed.
1. COCc1nc2cc(NCc3cc[nH]n3)ccc2o1
2. O=C(CN1CCc2cncnc2C1)NCCOc1ccccc1

106%
50%

====

Target: Histidine--tRNA ligase (Leishmania infantum) (UniProt A4I591)
Experiment: Leishmania infantum Histidine tRNA synthetase (LdHisRS)
Type: functional
Set-up: scale not given: in the data most compounds retested in dose-response had high values
Details: 30 µM
The whole screen tested about 69,000 compounds, of which about 420 (0.61%) showed an effect of 50% or more. The list comes from a sample in which strong results are over-represented; it also holds close analogues and randomly drawn compounds.
Observed Property: Percent Effect (%)
Answers are plain numbers, in %.

Solved cases (6 shown):
1. CN(C)C[C@H]1OC[C@@H]2CN(C(=O)NCc3cccc(F)c3)CC[C@@H]21; 0
2. CN(C)CCO[C@H]1CN(C(=O)c2cccs2)[C@@H]2COC[C@H]12; 10.9
3. CC(C)(CN)NS(=O)(=O)c1cccc(F)c1F; 11.8
4. COc1cc(F)c(S(=O)(=O)Nc2cnc(O)cc2C)cc1OC; 97.6
5. COc1ccc(C)cc1CN1CCn2cccc2C1C (stereo not drawn); 42
6. CC(C)CN1C[C@H]2C[C@H](C(=O)N3CCCC3)[C@@H](C1)O2; 13.2

Report Percent Effect for each item below.
1. Cc1nccc(-c2cccc(NCC(=O)N3CCCCCCC3)c2)n1
2. O=C(O)c1c[nH]c2cc(NS(=O)(=O)c3cccc(F)c3F)ccc12
3. Cc1cc(O)ccc1-c1cc(-c2cnn(C)c2C2CC2)c(C#N)c(N)n1
4. COc1ccccc1S(=O)(=O)Nc1cnc(O)cc1C
5. Cc1cnc(N2CC[C@@H]3O[C@@H](COCc4ccccn4)CC[C@@H]32)nc1
6. Cc1cc(O)ncc1NS(=O)(=O)c1cccc(F)c1F
7. COc1ccc(C(C)=O)cc1CN1CCn2cccc2C1C (stereo not drawn)
8. COc1ccc(CNC(=O)Nc2ccc(=O)n(C)c2)cc1

1. -19.7
2. 36.5
3. 29.1
4. 20.5
5. 13
6. 95.2
7. 52.7
8. 114

====

Target: Histidine--tRNA ligase (Leishmania infantum)
Experiment: Leishmania infantum Histidine tRNA synthetase (LdHisRS)
Assay type: functional
Set-up: scale not given: in the data most compounds retested in dose-response had high values
Conditions: 30 µM
The campaign covered roughly 69,000 compounds. About 420 (0.61%) showed an effect of 50% or more. For the sample, strong results were picked, then their nearest neighbours and some compounds at random.
Give Percent Effect for every item shown.
Give bare numbers, in %.

Solved cases (10 shown):
1) Cc1nccn1CCCn1cncc1-c1ccc2c(c1)CCCN2C; 30.9
2) CCN1c2ccc(-c3cncn3CC(=O)NC(C)(C)C)cc2CC1C (stereo unspecified); 42.1
3) CCN1c2ccc(-c3cncn3CCCn3ccnc3C)cc2CC1C (stereo unspecified); 48.3
4) CCOC(=O)c1n[nH]cc1-c1cncn1CCCn1nc(C)cc1C; 13.1
5) CCCOCC1CCN(C(=O)Cn2cccc(OC)c2=O)C1 (stereo unspecified); 97.4
6) CC1Cc2cc(-c3cncn3CC(=O)NC(C)(C)C)ccc2N1C (stereo unspecified); 31
7) Cc1cc(C)n(CCCn2cncc2-c2ccc3c(c2)CC(C)N3C)n1 (stereo unspecified); 64.4
8) CC(C)=CCN1CCN(Cc2ncc[nH]2)[C@H]2CS(=O)(=O)C[C@H]21; 0
9) NC(=O)[C@@H]1CN2CCN(C(=O)C3CC3)C[C@@H]2[C@H]1c1ccccc1; 2.04
10) COc1cccn(CC(=O)N2CCC3(CCNCC3)C2)c1=O; 116

Turning now to a further compound:
Value lookup for Percent Effect; key = COC1CCN(C(=O)Cn2cccc(C(F)(F)F)c2=O)C1 (stereo unspecified)
18.8
